The reported measurements were obtained from patent US20180099931A1.

Examples of compounds with documented Emax follow.
subjectOfTest: F508delCFTR (Homo sapiens, UniProt P13569, DEL508-508)
Construct: expressed in transfected cells; host or cells: CFBE41o- human lung-derived epithelial cells (CFBE4lo-F508delCFTR-HRP), doxycycline-inducible
Sequence (P13569 with tags, fused parts or gaps DEL508-508): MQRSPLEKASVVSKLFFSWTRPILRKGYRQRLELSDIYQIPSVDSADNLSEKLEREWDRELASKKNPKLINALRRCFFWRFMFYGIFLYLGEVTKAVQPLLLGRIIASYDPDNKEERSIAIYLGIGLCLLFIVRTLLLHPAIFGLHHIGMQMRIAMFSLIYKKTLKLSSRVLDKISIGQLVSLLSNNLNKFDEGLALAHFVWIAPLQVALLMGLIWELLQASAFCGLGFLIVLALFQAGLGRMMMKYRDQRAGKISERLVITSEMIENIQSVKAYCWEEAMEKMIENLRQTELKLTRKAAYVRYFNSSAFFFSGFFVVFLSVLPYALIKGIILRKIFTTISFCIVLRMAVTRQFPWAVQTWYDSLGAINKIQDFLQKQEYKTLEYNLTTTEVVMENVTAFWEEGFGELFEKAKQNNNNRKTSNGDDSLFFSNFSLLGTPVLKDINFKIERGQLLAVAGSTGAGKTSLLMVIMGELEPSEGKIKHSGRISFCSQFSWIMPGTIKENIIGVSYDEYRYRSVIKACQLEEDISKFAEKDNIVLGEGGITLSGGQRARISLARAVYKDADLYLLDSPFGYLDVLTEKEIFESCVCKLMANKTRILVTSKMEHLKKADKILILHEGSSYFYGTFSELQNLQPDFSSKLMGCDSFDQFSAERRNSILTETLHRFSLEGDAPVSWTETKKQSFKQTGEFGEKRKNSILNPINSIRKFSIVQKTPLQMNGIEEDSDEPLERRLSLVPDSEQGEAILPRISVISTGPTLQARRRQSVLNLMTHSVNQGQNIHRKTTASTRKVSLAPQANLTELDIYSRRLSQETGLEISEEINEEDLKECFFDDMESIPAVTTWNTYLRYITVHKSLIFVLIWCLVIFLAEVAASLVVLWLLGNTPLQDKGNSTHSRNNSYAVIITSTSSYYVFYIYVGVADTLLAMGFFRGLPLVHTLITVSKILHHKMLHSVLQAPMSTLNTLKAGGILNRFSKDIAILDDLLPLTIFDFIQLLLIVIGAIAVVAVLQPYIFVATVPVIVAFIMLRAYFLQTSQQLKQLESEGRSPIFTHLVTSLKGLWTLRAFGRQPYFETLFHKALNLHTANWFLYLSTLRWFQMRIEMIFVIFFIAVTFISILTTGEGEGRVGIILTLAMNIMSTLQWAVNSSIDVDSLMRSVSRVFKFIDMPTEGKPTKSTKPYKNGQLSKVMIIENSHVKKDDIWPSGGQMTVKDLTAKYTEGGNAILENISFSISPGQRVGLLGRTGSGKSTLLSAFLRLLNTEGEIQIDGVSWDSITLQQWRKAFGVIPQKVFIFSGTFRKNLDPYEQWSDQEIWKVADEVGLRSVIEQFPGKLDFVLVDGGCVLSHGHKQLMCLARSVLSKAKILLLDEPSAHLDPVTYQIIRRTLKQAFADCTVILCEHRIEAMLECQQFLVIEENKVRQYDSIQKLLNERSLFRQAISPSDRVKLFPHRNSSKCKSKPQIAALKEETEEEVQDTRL
experiment: Cell Surface Expression-Horse Radish Peroxidase (CSE-HRP) Assay;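 on Maximum % activity (without co-corrector): percent of the 2 µM on-plate positive control corrector response above DMSO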
Type: cell-based
measurementContext: CSE-HRP; without co-corrector; maximum at any tested concentration, normalized to on-plate positive control; read-out: Maximum % activity (without co-corrector)

The following compounds have reported results that may help.
>  <compound>
COc1ccccc1C1(CN[C@H]2[C@H](C(C)(C)C)[C@@H](C(=O)O)N(C(=O)OC(C)C)[C@H]2c2ccccc2)CCOCC1

>  <Emax>
< 100%

$$$$
>  <compound>
COc1ccc(C(C)(C)C)cc1CN[C@H]1[C@H](C(C)(C)C)[C@@H](C(=O)O)N(C(=O)CC2CCOCC2)[C@H]1c1ccccc1

>  <Emax>
100 to 200%

$$$$
>  <compound>
Cc1ccc(C(F)(F)F)cc1CN[C@@H]1[C@@H](C(C)(C)C)[C@H](C(=O)O)N(C(=O)C2CCCCC2)[C@@H]1c1ccccc1 (racemic)

>  <Emax>
< 100%

$$$$
>  <compound>
COc1ccc(C(F)(F)F)cc1CN[C@@H]1[C@@H](C(C)(C)C)[C@H](C(=O)O)N(C(=O)C2CCC3(CC2)CC3)[C@@H]1c1ccccc1 (racemic)

>  <Emax>
< 100%

$$$$
>  <compound>
COc1ncc(C(F)(F)F)cc1CN[C@H]1[C@H](C(C)(C)C)[C@@H](C(=O)O)N(C(=O)C2CCC2)[C@H]1c1ccccc1C(F)(F)F

>  <Emax>
< 100%

$$$$

Need Emax, item COc1ccc(C(C)C)cc1CN[C@@H]1[C@@H](C(C)(C)C)[C@H](C(=O)O)N(C(=O)OC(C)C)[C@@H]1c1ccccc1 (racemic)
> 200%

Need Emax, item COc1cc(C(C)(C)C)ccc1CN[C@H]1[C@H](C(C)(C)C)[C@@H](C(=O)O)N(C(=O)C2CCCCC2)[C@H]1c1cccnc1N(C)C
100 to 200%

====

subjectOfTest: F508delCFTR (Homo sapiens, UniProt P13569, DEL508-508)
Construct: expressed in transfected cells; host or cells: CFBE41o- human lung-derived epithelial cells (CFBE4lo-F508delCFTR-HRP), doxycycline-inducible
experiment: Cell Surface Expression-Horse Radish Peroxidase (CSE-HRP) Assay;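 on Maximum % activity (with co-corrector): co-corrector and positive control are both the same reference corrector at 2 µM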
Assay type: cell-based
measurementContext: with co-corrector (2 μM); maximum at any tested concentration, normalized to on-plate positive control
Method: Cell Surface Expression-Horse Radish Peroxidase (CSE-HRP) Assay The development was achieved by expressing the F508delCFTR mutation along with a horseradish peroxidase (HRP) in the fourth exofacial loop, and then measuring the HRP activity using luminescence readout from these cells, CFBE4lo-F508delCFTR-HRP, that were incubated overnight with the test corrector compounds, either without or with the co-corrector. […] The raw counts from the experiment were analyzed using Accelrys® Assay Explorer v3.3. […]
measure: Maximum % activity (with co-corrector)

The following compounds have reported results that may help.
>  <compound>
COc1ccc(C(C)(C)C)cc1CN[C@H]1[C@H](C(C)(C)C)[C@@H](C(=O)O)N(C(=O)C2Cc3ccccc3O2)[C@H]1c1cccnc1OC (single isomer, unassigned) [Example I-165]

>  <Maximum % activity (with co-corrector)>
+++ (≥350)

$$$$
>  <compound>
COc1ccc(C(C)(C)C)cc1CN[C@H]1[C@H](C(C)(C)C)[C@@H](C(=O)O)N(C(=O)OC(C)C)[C@H]1c1ccccc1OC

>  <Maximum % activity (with co-corrector)>
+++ (≥350)

$$$$
>  <compound>
CC(C)(C)c1ccc(O)c(CN[C@H]2[C@H](C(C)(C)C)[C@@H](C(=O)O)N(C(=O)C3CCCCC3)[C@H]2c2ccccc2)c1

>  <Maximum % activity (with co-corrector)>
+ (<150)

$$$$
>  <compound>
COc1ccc(C(C)(C)C)cc1CN[C@H]1[C@H](C(C)(C)C)[C@@H](C(=O)O)N(C(=O)c2cn(C)c3ccccc23)[C@H]1c1ccccc1

>  <Maximum % activity (with co-corrector)>
++ (≥150 and <350)

$$$$
>  <compound>
COc1cc(C(F)(F)F)ccc1CN[C@H]1[C@H](C(C)(C)C)[C@@H](C(=O)O)N(C(=O)C2CCCCC2)[C@H]1c1ccccc1C

>  <Maximum % activity (with co-corrector)>
+++ (≥350)

$$$$

Read the next record carefully.
Need Maximum % activity (with co-corrector), item CC(C)(C)[C@@H]1[C@@H](Nc2cccc(OC(F)F)n2)[C@@H](c2ccccc2)N(C(=O)C2CCCCC2)[C@H]1C(=O)O (racemic)
+++ (≥350)
